Experiment: DMS-53 xenograft oral study: body and organ weights, haematology, biochemistry, histology
Format: in vivo, nude mice (BALBc nu/nu)
Conditions: oral gavage 21 days, 2.5 mg/kg
measure_name: Haematocrit (HCT) (%)
Answers are plain numbers, in %.

Task: Haematocrit (HCT) for `CCN(C)C(=S)NN=C(c1ccccn1)c1ccccn1` ?
Result: 44
